target: UniProt:P25099; assay: Inhibition of radioligand R[3H]-N6-PIA binding to adenosine A1 receptors in rat whole brain membrane at 20 uM concentration.; format: cell membranes
Sequence (P25099 whole entry): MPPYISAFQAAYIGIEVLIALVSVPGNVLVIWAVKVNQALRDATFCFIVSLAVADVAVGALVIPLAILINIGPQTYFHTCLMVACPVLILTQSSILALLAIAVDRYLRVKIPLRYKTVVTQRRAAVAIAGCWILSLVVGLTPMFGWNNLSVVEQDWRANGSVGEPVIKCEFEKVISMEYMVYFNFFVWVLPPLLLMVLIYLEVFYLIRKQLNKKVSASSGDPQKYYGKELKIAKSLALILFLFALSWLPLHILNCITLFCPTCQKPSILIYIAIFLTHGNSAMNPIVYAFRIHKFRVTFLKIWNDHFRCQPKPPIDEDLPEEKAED
Classification field: enter class 1 for inhibition values not below 40%, class 0 for values below it.

[[record]]
input_smiles = "Cn1c(=O)[nH]c2c(cnn2-c2cccc([N+](=O)[O-])c2)c1=N"
label_class = "class 0"

[[record]]
input_smiles = "Cn1c(=O)[nH]c2c(cnn2-c2cc(Cl)cc(Cl)c2)c1=N"
label_class = "class 0"

[[record]]
input_smiles = "Cn1c(=O)[nH]c2c(cnn2-c2cccc(F)c2)c1=N"
label_class = "class 1"

[[record]]
input_smiles = "CCCCn1c(=O)[nH]c2c(cnn2-c2ccccc2)c1=N"
label_class = "class 1"

[[record]]
input_smiles = "CCCCn1c(=O)[nH]c2c(cnn2-c2cccc(Cl)c2)c1=N"
label_class = "class 1"

[[record]]
input_smiles = "CCn1c(=O)[nH]c2c(cnn2-c2cccc(Cl)c2)c1=N"
label_class = "class 1"


---

experiment: Hydrophobicity index measured by retention time on a reverse phase HPLC column.; assay type: ADME
The compounds listed here are annotated with their k'.
READOUT LABEL: k'

[[record]]
input_smiles = "Cn1c(=O)[nH]c2c(cnn2-c2cc(Cl)cc(Cl)c2)c1=N"
experimental_value = "> 36.5"

[[record]]
input_smiles = "CCn1c(=O)[nH]c2c(cnn2-c2cccc(Cl)c2)c1=N"
experimental_value = 21.9

[[record]]
input_smiles = "CCCCn1c(=O)[nH]c2c(cnn2-c2cccc(Cl)c2)c1=N"
experimental_value = "> 36.5"

[[record]]
input_smiles = "CCCn1c(=O)[nH]c2c(cnn2-c2cccc(Cl)c2)c1=N"
experimental_value = "> 36.5"

[[record]]
input_smiles = "Cn1c(=O)[nH]c2c(cnn2-c2ccc([N+](=O)[O-])cc2)c1=N"
experimental_value = "> 36.5"

[[record]]
input_smiles = "Cn1c(=O)[nH]c2c(cnn2-c2cccc([N+](=O)[O-])c2)c1=N"
experimental_value = "> 36.5"

